- System: NMB receptor (Rattus norvegicus, UniProt P24053)
- Sequence (P24053 1-390): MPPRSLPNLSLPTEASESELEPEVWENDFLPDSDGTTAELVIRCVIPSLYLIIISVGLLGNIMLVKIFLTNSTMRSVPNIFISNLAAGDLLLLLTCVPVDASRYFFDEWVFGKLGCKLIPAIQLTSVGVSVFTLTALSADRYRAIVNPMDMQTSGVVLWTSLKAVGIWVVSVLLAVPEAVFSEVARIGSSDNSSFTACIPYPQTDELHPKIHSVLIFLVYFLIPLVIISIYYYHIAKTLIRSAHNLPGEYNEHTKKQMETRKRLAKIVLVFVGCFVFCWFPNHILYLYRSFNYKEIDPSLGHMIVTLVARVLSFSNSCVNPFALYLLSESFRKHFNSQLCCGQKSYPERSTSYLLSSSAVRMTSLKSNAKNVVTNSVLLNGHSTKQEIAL
Where a SMILES comes first, the peptide text is derived from it. Bridges are numbered along the chain shown (N, C = ends). [ ]: non-standard residue; d: D form. 2Nal = N[C@@H](Cc1ccc2ccccc2c1)C(=O)O; d2Nal = N[C@H](Cc1ccc2ccccc2c1)C(=O)O
Could you please mark class 1 for values of Ki below 200 nM and class 0 for values at or above it?

Identify whether the molecule CC(C)[C@@H]1NC(=O)[C@H](CCCCN)NC(=O)[C@@H](Cc2c[nH]c3ccccc23)NC(=O)[C@H](Cc2ccc(O)cc2)NC(=O)[C@@H](NC(=O)[C@H](N)Cc2ccc3ccccc3c2)CSSC[C@@H](C(=O)N[C@@H](Cc2ccc3ccccc3c2)C(N)=O)NC1=O [Analog #1] (H-[d2Nal]CY[dW]KVC[2Nal]-NH2; disulfide 2-7) records Ki below 200 nM.
class 1

Identify whether the molecule CC(C)[C@@H]1NC(=O)[C@H](CCCCN)NC(=O)[C@@H](Cc2c[nH]c3ccccc23)NC(=O)[C@H](Cc2ccc(O)cc2)NC(=O)[C@@H](NC(=O)[C@H](N)Cc2ccc3ccccc3c2)CSSC[C@H](C(=O)N[C@@H](Cc2ccc3ccccc3c2)C(N)=O)NC1=O [Analog #11] (H-[d2Nal]CY[dW]KV[dC][2Nal]-NH2; disulfide 2-7) records Ki below 200 nM.
class 0

Identify whether the molecule NCCCC[C@@H]1NC(=O)[C@@H](Cc2c[nH]c3ccccc23)NC(=O)[C@H](Cc2ccc(O)cc2)NC(=O)[C@@H](NC(=O)[C@H](N)Cc2ccc3ccccc3c2)CSSC[C@@H](C(=O)N[C@@H](Cc2ccc3ccccc3c2)C(N)=O)NC(=O)[C@H](Cc2ccccc2)NC1=O [Analog #13] (H-[d2Nal]CY[dW]KFC[2Nal]-NH2; disulfide 2-7) records Ki below 200 nM.
class 0

Identify whether the molecule C[C@@H](O)[C@H](NC(=O)[C@@H]1CSSC[C@H](NC(=O)[C@H](N)Cc2ccc3ccccc3c2)C(=O)N[C@@H](Cc2ccc(O)cc2)C(=O)N[C@H](Cc2c[nH]c3ccccc23)C(=O)N[C@@H](CCCCN)C(=O)N[C@@H](Cc2ccc3ccccc3c2)C(=O)N1)C(N)=O records Ki below 200 nM.
class 1

Identify whether the molecule CC(C)[C@@H]1NC(=O)[C@H](CCCCN)NC(=O)[C@@H](Cc2c[nH]c3ccccc23)NC(=O)[C@H](Cc2ccc(O)cc2)NC(=O)[C@H](NC(=O)[C@H](N)Cc2ccc3ccccc3c2)CSSC[C@@H](C(=O)N[C@@H](Cc2ccc3ccccc3c2)C(N)=O)NC1=O [Analog #10] (H-[d2Nal][dC]Y[dW]KVC[2Nal]-NH2; disulfide 2-7) records Ki below 200 nM.
class 0

Identify whether the molecule CC(C)[C@@H]1NC(=O)[C@H](CCCCN)NC(=O)[C@@H](Cc2ccc3ccccc3c2)NC(=O)[C@H](Cc2ccc(O)cc2)NC(=O)[C@@H](NC(=O)[C@H](N)Cc2ccc3ccccc3c2)CSSC[C@@H](C(=O)N[C@@H](Cc2ccc3ccccc3c2)C(N)=O)NC1=O [Analog #17] (H-[d2Nal]CY[d2Nal]KVC[2Nal]-NH2; disulfide 2-7) records Ki below 200 nM.
class 0
